System: U251 CNS
test_description: NCI tumour cell line growth inhibition, 48 h
Would you kindly list TGI for each of these molecules?

Look up TGI: Nc1ncnc2c1nnn2C1C=CC(CP(=O)(O)O)C1 (configuration not stated)
> 100 µM

Look up TGI: CCOC(=O)c1csc(NC(=O)C(C)N2CCCC2)n1 (configuration not stated)
> 100 µM

Look up TGI: `COc1ccc2c(N)ncc(C#Cc3cc(C(=O)Nc4ccc(CN5CCN(C)CC5)c(C(F)(F)F)c4)cnc3C)c2c1`
1.15 µM

Look up TGI: COC(=O)C1C(=O)O[C@@H](c2ccc3c(c2)OCO3)C1C(=O)OC (mixture of isomers)
> 100 µM

Look up TGI: [N-]=[N+]=CC(=O)C1CCCN1C(=O)c1ccccc1 (configuration not stated)
> 10 µM

Look up TGI: `O=c1cc(O)cc2n1CCC2`
> 100 µM

Look up TGI: `c1ccc(-c2[nH]ncc2-c2ccnc(-c3ccc(OCCn4ccnc4)cc3)c2)nc1`
> 25 µM

Look up TGI: `CC1=C(C(=O)Nc2ccccc2)C(c2ccc(N(C)C)cc2)C(C(=O)Nc2ccccc2)=C(C)N1`
> 72.4 µM

Look up TGI: `N#C/C(=C\c1cc(OCc2ccccc2)c(OCc2ccccc2)cn1)C(N)=O`
> 100 µM

Look up TGI: `CC(=O)O[C@@H](c1nccn1Cc1ccccc1)[C@H]1OC(C)(C)O[C@@H]1[C@H]1COC(C)(C)O1`
> 100 µM

Look up TGI: `FC(F)(F)Oc1cccc(-c2cc(NCCCCCCNc3cc(-c4cccc(OC(F)(F)F)c4)nc4ccc(N5CCCC5)cc34)c3cc(N4CCCC4)ccc3n2)c1`
4.62 µM

Look up TGI: `CCn1cc(C(=O)O)c(=O)c2cc(F)c(N3CCN(S(=O)(=O)c4cccc5ccccc45)CC3)cc21`
> 100 µM

Look up TGI: `c1c[nH]c(-c2cccc3nsnc23)c1`
> 100 µM

Look up TGI: `CN[C@@H](C)C(=O)N[C@H]1CN(S(=O)(=O)c2cccc(S(=O)(=O)N3CC[C@H]4CC[C@@H](C(=O)NC(c5ccccc5)c5ccccc5)N4C(=O)[C@@H](NC(=O)[C@H](C)NC)C3)c2)CC[C@H]2CC[C@@H](C(=O)NC(c3ccccc3)c3ccccc3)N2C1=O`
63.8 µM

Look up TGI: `O=c1oc2ccc3ccccc3c2cc1-c1cn2ccsc2n1`
> 100 µM

Look up TGI: `Cc1nnc2n(c1=O)CCCN2C`
> 100 µM

Look up TGI: `CCOC(=O)/C=C/c1nc(C#N)c(N)o1`
> 100 µM

Look up TGI: `Cc1c(N2CCOCC2)nc2ccc(Cl)cc2c1-c1ccccc1`
> 100 µM

Look up TGI: `N#CNC(N)=NCc1ccccc1`
> 100 µM

Look up TGI: `O=[N+]([O-])c1ccc(C[P+]2(c3ccccc3)CCCCC2)cc1`
> 100 µM

Look up TGI: `CC1=N/C(=C\c2ccc(/C=C3/N=C(C)OC3=O)cc2)C(=O)O1`
> 100 µM

Look up TGI: `O=C(/C=C/c1ccc(O)c(O)c1)OCCc1ccc2ccccc2c1`
23.8 µM

###

Test system: UO-31 renal
test_description: NCI tumour cell line growth inhibition, 48 h
observable: TGI (µM)
Output spec: scalar in µM, unitless text.

Look up TGI: `Cc1nc2ccc(Cl)cc2c(-n2ccnc2)c1CCn1ccnc1`
74.6

Look up TGI: `CC(=O)c1ccc(Oc2c3ccccc3nc3ccccc23)cc1`
13.2

Look up TGI: CCN(CC)Cc1cc(Nc2nc(NC3CCC(N(C)C)CC3)c3ccccc3n2)ccc1OC (configuration not stated)
27.2

Look up TGI: Nc1nc2c(c3cnccc13)C(c1ccc(Cl)c(Cl)c1)Cc1cnccc1-2 (configuration not stated)
6.72

Look up TGI: CN(C)CCCC1(c2ccc(F)cc2)OCc2cc(-c3cccc4[nH]ccc34)ccc21 (configuration not stated)
2.63

Look up TGI: `O=C(OCc1ccc2c(Br)cc(Br)c(O)c2n1)c1cc2ccccc2[nH]1`
1.19

Look up TGI: `CCCCI(O)OS(=O)(=O)c1ccc(C)cc1`
55.4

Look up TGI: `COc1cc2c(cc1Nc1nc(N3CCc4ccccc43)c3cc[nH]c3n1)N(C(=O)CN(C)C)CC2`
11.6

Look up TGI: `CNC(=O)c1ncccc1Nc1nc(Nc2cc3c(cc2OC)CCCN3C(=O)CN(C)C)nc2[nH]ccc12`
6.45

Look up TGI: `O=C(Nc1cccc(-n2cc(-c3ccncc3)c(-c3cc(O)cc(Cl)c3)n2)c1)c1ccc(N2CCOCC2)c(C(F)(F)F)c1`
15.5

Look up TGI: `O=CC(I)=C(c1ccccc1)c1ccccc1`
29.1
